From: ChEMBL document CHEMBL1134363

Would you mind telling me the reported Log Ki of each entry?
Biological target: Adrenergic receptor alpha-1 (Rattus norvegicus, UniProt P15823+P23944+P43140)
Test: In vitro binding affinity against alpha-1 adrenergic receptor of rat in presence of [3H]-prazosin radioligand
Format: protein assay
Give the figure only, with no unit attached.

State its Log Ki: NC1=NC(CC2=Cc3ccccc3CC2)CN1 (configuration not stated)
-7.2

State its Log Ki: C1=NCC(CC2CCc3ccccc3C2)N1 (configuration not stated)
-6.1

State its Log Ki: C1=NCC([C@H]2[C@@H]3Cc4ccccc4C[C@@H]32)N1 (some centres not stated)
-6.3

State its Log Ki: COc1ccc2c(c1)C=C(CC1CN=CN1)CC2 (configuration not stated)
-5.6

State its Log Ki: Fc1cccc2c1C=C(CC1CN=CN1)CC2 (configuration not stated)
-6.3

State its Log Ki: Clc1cccc2c1C=C(CC1CN=CN1)CC2 (configuration not stated)
-6.4

State its Log Ki: Clc1cccc2ccc(CC3CN=CN3)cc12 (configuration not stated)
-6.4

State its Log Ki: Fc1ccc2c(c1)CC(CC1CN=CN1)C2 (configuration not stated)
-6.2

State its Log Ki: Fc1cccc2c1CC(CC1CN=CN1)C2 (configuration not stated)
-6.8

State its Log Ki: C1=NCC(CC2Cc3ccccc3C2)N1 (configuration not stated)
-6.3

State its Log Ki: NC1=NCC(CC2=Cc3c(Cl)cccc3CC2)O1 (configuration not stated)
-6.5

State its Log Ki: C1=NC[C@]2(CC[C@@H]3Cc4ccccc4C[C@H]3C2)N1 (relative stereo)
-6.1

State its Log Ki: C1=NC[C@H](C2C[C@@]23CCc2ccccc2C3)N1 (some centres not stated)
-6

State its Log Ki: CCC1(c2c[nH]cn2)Cc2ccccc2C1 [ATIPAMEZOLE]
-5.7

State its Log Ki: Fc1ccc2c(c1)C=C(CC1CN=CN1)CC2 (configuration not stated)
-6.6

State its Log Ki: C1=NC[C@@]2(CC[C@@H]3Cc4ccccc4C[C@H]3C2)N1 (relative stereo)
-6.2

State its Log Ki: C1=NCC(Cc2cc3ccccc3o2)N1 (configuration not stated)
-5.6

State its Log Ki: Cc1cc2c(cc1C)CC(CC1CN=CN1)C2 (configuration not stated)
-6.7

State its Log Ki: C1=NCC(CC2=Cc3ccccc3CC2)N1 (configuration not stated)
-6.4

State its Log Ki: `C1=NCC2(CC3(Cc4ccccc4C3)C2)N1`
-5.3

State its Log Ki: CN[C@H](CC(C)C)C(=O)N[C@H]1C(=O)N[C@@H](CC(N)=O)C(=O)N[C@H]2C(=O)N[C@H]3C(=O)N[C@H](C(=O)N[C@H](C(=O)O)c4cc(O)cc(O)c4-c4cc3ccc4O)[C@H](O)c3ccc(c(Cl)c3)Oc3cc2cc(c3O[C@@H]2O[C@H](CO)[C@@H](O)[C@H](O)[C@H]2O[C@H]2C[C@](C)(N)[C@H](O)[C@H](C)O2)Oc2ccc(cc2Cl)[C@H]1O [VANCOMYCIN]
-6

State its Log Ki: COc1cccc2c1C=C(CC1CN=CN1)CC2 (configuration not stated)
-6.8

State its Log Ki: C1=NC[C@@H](C[C@]23CCc4ccccc4C2C3)N1 (some centres not stated)
-5.9

State its Log Ki: C1=NC[C@H](C[C@]23CCc4ccccc4C2C3)N1 (some centres not stated)
-5.9

State its Log Ki: `C1=C(Cc2c[nH]cn2)CCc2ccccc21`
-7.3

State its Log Ki: Cc1ccc2c(c1)C=C(CC1CN=C(N)O1)CC2 (configuration not stated)
-6.6

State its Log Ki: C1=NC[C@H](C2CC23Cc2ccccc2C3)N1 (some centres not stated)
-6.9

State its Log Ki: `C[C@@]1(C[C@H]2CN=CN2)CCc2ccccc2C1`
-5.7

State its Log Ki: Cc1ccc2c(c1)C=C(CC1CN=CN1)CC2 (configuration not stated)
-6.4

State its Log Ki: C1=NCC(CC2COc3ccccc3O2)N1 (configuration not stated)
-6.2

State its Log Ki: C1=NCC(CC2=Cc3ccccc3OC2)N1 (configuration not stated)
-5.8

====

Sequence of the target: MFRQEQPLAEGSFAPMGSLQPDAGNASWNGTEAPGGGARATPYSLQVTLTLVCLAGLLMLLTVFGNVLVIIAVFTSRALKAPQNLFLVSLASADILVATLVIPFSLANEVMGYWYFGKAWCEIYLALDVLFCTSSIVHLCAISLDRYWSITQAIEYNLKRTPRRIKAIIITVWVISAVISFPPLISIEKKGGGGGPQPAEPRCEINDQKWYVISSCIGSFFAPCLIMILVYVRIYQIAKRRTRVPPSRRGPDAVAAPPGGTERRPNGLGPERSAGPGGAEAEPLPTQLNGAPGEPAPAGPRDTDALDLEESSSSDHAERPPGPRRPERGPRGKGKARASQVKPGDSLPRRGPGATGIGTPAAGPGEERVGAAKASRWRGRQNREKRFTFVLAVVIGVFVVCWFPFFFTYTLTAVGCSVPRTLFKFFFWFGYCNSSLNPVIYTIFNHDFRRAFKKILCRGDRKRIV
assay_endpoint: pKi
Interpret pKi as the negative base-10 log of the concentration measured in mol/L.

State its pKi: CCC1(c2cnc[nH]2)Cc2ccccc2C1 [ATIPAMEZOLE]
8.50

State its pKi: C1=NCC(Cc2cc3ccccc3o2)N1 (stereo not given)
7.70

State its pKi: Clc1cccc2ccc(CC3CN=CN3)cc12 (stereo not given)
7.60

State its pKi: Fc1cccc2c1C=C(CC1CN=CN1)CC2 (stereo not given)
7.40

State its pKi: C1=NC[C@@H](C2C[C@@]23CCc2ccccc2C3)N1 (stereo not given in full)
8.50

====

Molecular target: Norepinephrine transporter (Rattus norvegicus)
Sequence (Q9WTR4 whole entry): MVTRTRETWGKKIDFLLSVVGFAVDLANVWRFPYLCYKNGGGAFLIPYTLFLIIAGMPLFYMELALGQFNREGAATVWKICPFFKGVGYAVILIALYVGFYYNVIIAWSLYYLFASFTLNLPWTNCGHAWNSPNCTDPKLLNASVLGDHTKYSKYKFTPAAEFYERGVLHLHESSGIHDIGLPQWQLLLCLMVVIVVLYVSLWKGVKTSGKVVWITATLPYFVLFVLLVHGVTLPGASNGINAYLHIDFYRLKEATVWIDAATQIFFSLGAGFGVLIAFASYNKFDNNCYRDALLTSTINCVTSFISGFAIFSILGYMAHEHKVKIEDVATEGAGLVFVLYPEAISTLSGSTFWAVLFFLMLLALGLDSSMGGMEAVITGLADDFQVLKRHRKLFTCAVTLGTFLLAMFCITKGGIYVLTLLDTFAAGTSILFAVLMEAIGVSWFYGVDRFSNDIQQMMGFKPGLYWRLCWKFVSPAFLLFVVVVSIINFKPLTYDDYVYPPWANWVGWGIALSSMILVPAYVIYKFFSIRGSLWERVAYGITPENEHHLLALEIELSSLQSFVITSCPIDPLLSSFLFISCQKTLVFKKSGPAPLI
Test: In vitro binding affinity was determined against NA (noradrenaline) reuptake site of rat in presence of [3H]nisoxetine radioligand
pKi: −log10 of the molar value.
Class True: pKi at least 7. Class False: pKi below 7.

Is it the case that Cc1ccc2c(c1)C=C(CC1CN=C(N)O1)CC2 (configuration not stated) has pKi reaching or exceeding 7?
False

Is it the case that NC1=NCC(CC2=Cc3c(Cl)cccc3CC2)O1 (configuration not stated) has pKi reaching or exceeding 7?
False

Is it the case that FC(F)(F)c1ccc2c(c1)C=C(CC1CN=CN1)CC2 (configuration not stated) has pKi reaching or exceeding 7?
False

Is it the case that Clc1cccc2ccc(CC3CN=CN3)cc12 (configuration not stated) has pKi reaching or exceeding 7?
True

Is it the case that `C1=C(Cc2c[nH]cn2)CCc2ccccc21` has pKi reaching or exceeding 7?
False

Is it the case that NC1=NCC(CC2=Cc3ccccc3CC2)O1 (configuration not stated) has pKi reaching or exceeding 7?
False

Is it the case that C1=NC[C@@]2(CC[C@@H]3Cc4ccccc4C[C@H]3C2)N1 (relative stereo) has pKi reaching or exceeding 7?
False

Is it the case that Cc1cc2c(cc1C)CC(CC1CN=CN1)C2 (configuration not stated) has pKi reaching or exceeding 7?
True

Is it the case that Cc1ccc2c(c1)CCC(CC1CN=CN1)=C2 (configuration not stated) has pKi reaching or exceeding 7?
False

Is it the case that Fc1ccc2c(c1)CC(CC1CN=CN1)C2 (configuration not stated) has pKi reaching or exceeding 7?
False

Is it the case that `C1=NCC2(CC3(Cc4ccccc4C3)C2)N1` has pKi reaching or exceeding 7?
False

Is it the case that Fc1ccc2c(c1)C=C(CC1CN=CN1)CC2 (configuration not stated) has pKi reaching or exceeding 7?
True

Is it the case that `C[C@@]1(C[C@@H]2CN=CN2)CCc2ccccc2C1` has pKi reaching or exceeding 7?
False

Is it the case that C1=NCC([C@@H]2[C@@H]3Cc4ccccc4C[C@@H]32)N1 (some centres not stated) has pKi reaching or exceeding 7?
True

Is it the case that C1=NC[C@@H](C2CC23Cc2ccccc2C3)N1 (some centres not stated) has pKi reaching or exceeding 7?
False

Is it the case that C1=NCC(CC2COc3ccccc3O2)N1 (configuration not stated) has pKi reaching or exceeding 7?
False

Is it the case that C1=NC[C@H](C2CC23Cc2ccccc2C3)N1 (some centres not stated) has pKi reaching or exceeding 7?
True

Is it the case that C1=NC(CC2CCc3ccccc3O2)CN1 (configuration not stated) has pKi reaching or exceeding 7?
False

Is it the case that Cc1ccc2c(c1)CCC(CC1CN=C(N)O1)=C2 (configuration not stated) has pKi reaching or exceeding 7?
False

Is it the case that Cc1ccc2c(c1)C=C(CC1CN=CN1)CC2 (configuration not stated) has pKi reaching or exceeding 7?
False

Is it the case that `CCC1(c2cnc[nH]2)Cc2ccccc2C1` has pKi reaching or exceeding 7?
False

Is it the case that Fc1ccc2oc(CC3CN=CN3)cc2c1 (configuration not stated) has pKi reaching or exceeding 7?
False

Is it the case that C1=NC[C@H](C2C[C@@]23CCc2ccccc2C3)N1 (some centres not stated) has pKi reaching or exceeding 7?
False

Is it the case that CC1(CC2=Cc3ccccc3CC2)CN=CN1 (configuration not stated) has pKi reaching or exceeding 7?
False

Is it the case that C1=NCC(CC2=Cc3ccccc3C2)N1 (configuration not stated) has pKi reaching or exceeding 7?
True

Is it the case that Clc1cccc2c1C=C(CC1CN=CN1)CC2 (configuration not stated) has pKi reaching or exceeding 7?
True

Is it the case that C1=NCC(CC2Cc3ccccc3C2)N1 (configuration not stated) has pKi reaching or exceeding 7?
True

Is it the case that C1=NC[C@@H](C[C@]23CCc4ccccc4C2C3)N1 (some centres not stated) has pKi reaching or exceeding 7?
False

Is it the case that `C1=NC[C@@H]([C@H]2[C@@H]3CCc4ccccc4[C@@H]32)N1` has pKi reaching or exceeding 7?
False

Is it the case that `C1=C(CC2=NCCN2)CCc2ccccc21` has pKi reaching or exceeding 7?
False

Is it the case that COc1cccc2c1C=C(CC1CN=CN1)CC2 (configuration not stated) has pKi reaching or exceeding 7?
False

Is it the case that C1=NC[C@H](C[C@]23CCc4ccccc4C2C3)N1 (some centres not stated) has pKi reaching or exceeding 7?
False

Is it the case that Cc1cccc2c1C=C(CC1CN=CN1)CC2 (configuration not stated) has pKi reaching or exceeding 7?
False

Is it the case that C1=NCC(CC2=Cc3ccccc3CC2)N1 (configuration not stated) has pKi reaching or exceeding 7?
True
